Reference source for all entries: ChEMBL document CHEMBL3507680

Experiment: Human HepG2 cell viability assay in 384 well format
Format: toxicity, cell-based
Parameters: dose 125 nL, time 70.5 hour; concentration not given beside the values
Details: HepG2 cells, read-out: Inhibition
Reported cytotoxicity at 70.5 h values follow for various compounds
Return type: number; implicit unit %.

Examples with answers:
Cc1ccc(F)c(CNc2ccn(CCC(N)=O)n2)c1 ... 3.53
Cc1cc(C(F)(F)F)nn1CCCNC(=O)C1CCN(S(C)(=O)=O)CC1 ... -10.7
Cc1nc(C)n(CC2CN(CCOCC(F)(F)F)CCO2)n1 (stereo not drawn) ... -17.5

Quick one: cytotoxicity at 70.5 h of COCCC(=O)N1CCC(Nc2ncc(Cl)cn2)CC1 ?
0.73

Would you mind telling me what cytotoxicity at 70.5 h value was observed for O=C(c1scc2c1OCCO2)N1CCOC(Cc2cccc(F)c2)C1 (stereo not drawn) ?
-5.83

Form field: reported cytotoxicity at 70.5 h of CC(C)O[C@@H]1CC[C@H]2[C@H]1OCCN2C(=O)c1nn(C)c2ccccc12
1.07

Could you tell me which cytotoxicity at 70.5 h is on file for CC(C1CCN(Cc2cnn(C)c2C2CC2)CC1)N(C)C (stereo not drawn) ?
-7.09

Consider the compound Nc1nc2c(c(NCc3cnc4c(c3)CCC4)n1)CCNC2 and give its measured cytotoxicity at 70.5 h.
-10.4

* * *

Assay: Human HepG2 cell viability assay in 384 well format
Format: toxicity, cell-based
Parameters: dose 125 nL, time 70.5 hour; concentration not given beside the values
Conditions: HepG2 cells, read-out: Inhibition
readout.type: cytotoxicity at 70.5 h (%)
Field format: number, assumed %, no unit text.

CN(C)C(=O)N1CCC(C(=O)NCCNc2ncccc2C#N)CC1 ... -4.63

Name the recorded cytotoxicity at 70.5 h for CC(C)CC(O)C1CCN(C(=O)c2coc(CN3CCOCC3)c2)CC1 (centres undefined) .
-7.32

Name the reported cytotoxicity at 70.5 h value associated with the compound Cc1ccc(C(=O)N2CCCC(Cn3cc(C(C)(C)N)nn3)C2)s1 (centres undefined)
-4.81

Endpoint output: cytotoxicity at 70.5 h of CN1CCCN(C(=O)c2nc3c(s2)CCCN3CC2CC2)CC1 . Value?
-1.89

Record request: cytotoxicity at 70.5 h value, item O=C(N1CCOCC1)N1CC[C@@](O)(c2ccccc2)[C@H]2CCCC[C@@H]21
-1.75

Please report the recorded cytotoxicity at 70.5 h for CCS(=O)(=O)N1CCC(NC(=O)c2ccccc2O)CC1 .
-6.17

Report cytotoxicity at 70.5 h for Cc1ncccc1CNCC1CCCN1c1cccnn1 (centres undefined) please.
-3.29

Suppose we examine the compound CCNc1ncc(C(=O)NCCc2csc(-c3ncccn3)n2)cn1 ; what cytotoxicity at 70.5 h value has been reported?
5.7

Query (compound): CCCN1CCC(CC(=O)N(C)CC(=O)c2ccc(O)cc2)CC1 ; field requested: cytotoxicity at 70.5 h
-12.2

* * *

Assay: Human HepG2 cell viability assay in 384 well format
Format: toxicity, cell-based
Parameters: dose 125 nL, time 70.5 hour; concentration not given beside the values
Settings: HepG2 cells, read-out: Inhibition
readout.type: cytotoxicity at 70.5 h (%)
Write down the numeric answer in % and omit the unit.

# example entries with known answers
CCCC(=O)N1CCC2(CC1)CN(Cc1cccc(C)n1)C(=O)CO2 ... 0.856
Cc1ccc(NS(=O)(=O)c2c[nH]c3ncccc23)nc1 ... -2
Cc1oncc1C(=O)N1CC[C@@H]2[C@@H]1CC(=O)N2Cc1cccnc1 ... -5.14

Given the molecule O=S(=O)(NCc1ccccc1)N1CCN(c2ncccn2)CC1 , what is its reported cytotoxicity at 70.5 h?
-18.4

Field request: cytotoxicity at 70.5 h | item: O=C(c1nnn(-c2ccc(C(F)(F)F)cc2)n1)N1CCC(O)CC1
-2.52

# query: cytotoxicity at 70.5 h of entry CC(C)(C)OC(=O)NC1CCC(NC(=O)c2ccc[nH]2)CC1 (centres undefined)
-6.62

Please report the recorded cytotoxicity at 70.5 h for NC(=O)CN1CC2(CCC1=O)CCN(Cc1ccccc1F)CC2 .
-5.65

Fill blank: measured cytotoxicity at 70.5 h of the molecule CS(=O)(=O)CCN1C[C@H](NC(=O)c2cnc(O)cn2)[C@@H](C2CC2)C1 is ____.
11.1

Dear colleague, I am looking for the recorded cytotoxicity at 70.5 h of the following molecule: CCN(CC)C(=O)CN1CCC2(C=Cc3cc(Cl)c(C)cc3O2)CC1
7.43

I'd like to know its cytotoxicity at 70.5 h. The molecule in question is CC(C)c1nn(C)c(N(C)C)c1CNCc1ccccc1CN(C)C
-0.417

Dear colleague, I am looking for the recorded cytotoxicity at 70.5 h of the following molecule: O=C(C1CC=CC1)N1C[C@H]2CN(Cc3ccncc3)C(=O)[C@H]2C1
2.42

What value of cytotoxicity at 70.5 h has been recorded for this entry: Cc1cc(N2CCC(n3cc(CCCO)nn3)CC2)ccn1
-9.19

What cytotoxicity at 70.5 h value was documented for this molecule, CC(=O)N1CCO[C@@H]2CN(C(=O)c3ccc4ncccc4c3)CC[C@@H]2C1 ?
-3.03

Suppose we examine the molecule Cc1cnn(C2CCCN(C(=O)c3sccc3C#N)C2)c1 (centres undefined) ; what cytotoxicity at 70.5 h value has been reported?
28.7

Quick one: cytotoxicity at 70.5 h of CC(C)c1noc(CNc2ccc(OC(F)F)cc2OC(F)F)n1 ?
8.88
